- TEST_NAME: in vitro
- EXPERIMENTAL_SETUP: African green monkey, VeroE6 + CP (CC50), Vero E6-eGFP cells with CP-100356, absence of virus, MTS; numeric bounds

{"columns": ["MOL", "CC50"],
 "data": [
  ["O=C1NCC[C@H]1C[C@H](NC(=O)[C@@H]1[C@H]2CCC[C@H]2CN1C(=O)c1cc2c(OC3CC3)cc(Cl)cc2[nH]1)C(=O)CO", "> 50 µM"],
  ["O=C1NCC[C@H]1C[C@H](NC(=O)[C@@H]1[C@H]2CCC[C@H]2CN1C(=O)c1cc2c(Cl)c(F)c(Cl)cc2[nH]1)C(=O)CO", "> 50 µM"],
  ["O=C1NCC[C@H]1C[C@H](NC(=O)[C@@H]1[C@H]2CCC[C@H]2CN1C(=O)c1cc2c(Cl)cc(F)cc2[nH]1)C(=O)CO", "> 100 µM"]
]}
